- Tested on: HepG2
- test-protocol: Cytotoxicity against human HepG2 cells assessed as decrease in cell proliferation after 48 hrs by MTT colorimetric assay
- Assay type: functional, cell-based
- experimental-parameters: HepG2, 48 h
pIC50: −log10 of the molar value.

{"compound": "C[C@@H](CC[C@H]1O[C@H]2C[C@H]3[C@@H]4CC[C@@H]5C[C@@H](OCc6ccc(F)cc6)CC[C@]5(C)[C@H]4CC[C@]3(C)[C@H]2[C@@H]1C)CN(C)C", "system-under-test": "HepG2", "comparison-operator": "=", "pIC50": 4.56}
{"compound": "C[C@@H](CC[C@H]1O[C@H]2C[C@H]3[C@@H]4CC[C@@H]5C[C@@H](OCc6ccc(F)cc6)CC[C@]5(C)[C@H]4CC[C@]3(C)[C@H]2[C@@H]1C)CN1CCCC1", "system-under-test": "HepG2", "comparison-operator": "=", "pIC50": 5.36}
{"compound": "COc1ccc(CO[C@H]2CC[C@@]3(C)[C@H](CC[C@@H]4[C@@H]3CC[C@]3(C)[C@H]5[C@H](C)[C@@H](CC[C@H](C)CN6CCN(C)CC6)O[C@H]5C[C@@H]43)C2)cc1", "system-under-test": "HepG2", "comparison-operator": "=", "pIC50": 4.67}
{"compound": "C[C@H](CO)CC[C@H]1O[C@H]2C[C@H]3[C@@H]4CC[C@@H]5C[C@@H](OCc6ccccc6)CC[C@]5(C)[C@H]4CC[C@]3(C)[C@H]2[C@@H]1C", "system-under-test": "HepG2", "comparison-operator": "=", "pIC50": 4.84}
{"compound": "C[C@H](CO)CC[C@H]1O[C@H]2C[C@H]3[C@@H]4CC[C@@H]5C[C@@H](OCc6ccc(F)cc6)CC[C@]5(C)[C@H]4CC[C@]3(C)[C@H]2[C@@H]1C", "system-under-test": "HepG2", "comparison-operator": "=", "pIC50": 4.84}
{"compound": "CO[C@H]1CC[C@@]2(C)[C@H](CC[C@@H]3[C@@H]2CC[C@]2(C)[C@H]4[C@H](C)[C@@H](CC[C@@H](C)CN5CCNCC5)O[C@H]4C[C@@H]32)C1", "system-under-test": "HepG2", "comparison-operator": "=", "pIC50": 4.45}
{"compound": "COc1ccc(CO[C@H]2CC[C@@]3(C)[C@H](CC[C@@H]4[C@@H]3CC[C@]3(C)[C@H]5[C@H](C)[C@@H](CC[C@H](C)CN6CCNCC6)O[C@H]5C[C@@H]43)C2)cc1", "system-under-test": "HepG2", "comparison-operator": "=", "pIC50": 5.36}
{"compound": "COc1ccc(CO[C@H]2CC[C@@]3(C)[C@H](CC[C@@H]4[C@@H]3CC[C@]3(C)[C@H]5[C@H](C)[C@@H](CC[C@H](C)CN6CCCC6)O[C@H]5C[C@@H]43)C2)cc1", "system-under-test": "HepG2", "comparison-operator": "<", "pIC50": 4.00}
{"compound": "C[C@@H](CC[C@H]1O[C@H]2C[C@H]3[C@@H]4CC[C@@H]5C[C@@H](OCc6ccccc6)CC[C@]5(C)[C@H]4CC[C@]3(C)[C@H]2[C@@H]1C)CN1CCNCC1", "system-under-test": "HepG2", "comparison-operator": "<", "pIC50": 4.00}
{"compound": "C[C@@H](CC[C@H]1O[C@H]2C[C@H]3[C@@H]4CC[C@@H]5C[C@@H](OCc6ccc(F)cc6)CC[C@]5(C)[C@H]4CC[C@]3(C)[C@H]2[C@@H]1C)CN1CCNCC1", "system-under-test": "HepG2", "comparison-operator": "=", "pIC50": 5.06}
{"compound": "C[C@@H](CC[C@H]1O[C@H]2C[C@H]3[C@@H]4CC[C@@H]5C[C@@H](OCc6ccccc6)CC[C@]5(C)[C@H]4CC[C@]3(C)[C@H]2[C@@H]1C)CN1CCCC1", "system-under-test": "HepG2", "comparison-operator": "=", "pIC50": 4.52}
{"compound": "C[C@H]1CC[C@@]2(OC1)O[C@H]1C[C@H]3[C@@H]4CC[C@@H]5C[C@@H](O)CC[C@]5(C)[C@H]4CC[C@]3(C)[C@H]1[C@@H]2C [SARSASAPOGENIN]", "system-under-test": "HepG2", "comparison-operator": "=", "pIC50": 4.39}
{"compound": "C[C@@H](CC[C@H]1O[C@H]2C[C@H]3[C@@H]4CC[C@@H]5C[C@@H](OCc6ccc(F)cc6)CC[C@]5(C)[C@H]4CC[C@]3(C)[C@H]2[C@@H]1C)CN1CCN(C)CC1", "system-under-test": "HepG2", "comparison-operator": "=", "pIC50": 4.45}
{"compound": "COc1ccc(CO[C@H]2CC[C@@]3(C)[C@H](CC[C@@H]4[C@@H]3CC[C@]3(C)[C@H]5[C@H](C)[C@@H](CC[C@H](C)CN(C)C)O[C@H]5C[C@@H]43)C2)cc1", "system-under-test": "HepG2", "comparison-operator": "=", "pIC50": 4.10}
{"compound": "C[C@@H](CC[C@H]1O[C@H]2C[C@H]3[C@@H]4CC[C@@H]5C[C@@H](OCc6ccccc6)CC[C@]5(C)[C@H]4CC[C@]3(C)[C@H]2[C@@H]1C)CN(C)C", "system-under-test": "HepG2", "comparison-operator": "=", "pIC50": 4.37}
{"compound": "CCN(CC)C[C@@H](C)CC[C@H]1O[C@H]2C[C@H]3[C@@H]4CC[C@@H]5C[C@@H](OCc6ccc(OC)cc6)CC[C@]5(C)[C@H]4CC[C@]3(C)[C@H]2[C@@H]1C", "system-under-test": "HepG2", "comparison-operator": "=", "pIC50": 4.86}
{"compound": "C[C@@H](CC[C@H]1O[C@H]2C[C@H]3[C@@H]4CC[C@@H]5C[C@@H](OCc6ccccc6)CC[C@]5(C)[C@H]4CC[C@]3(C)[C@H]2[C@@H]1C)CN1CCN(C)CC1", "system-under-test": "HepG2", "comparison-operator": "=", "pIC50": 4.28}
{"compound": "O=c1[nH]cc(F)c(=O)[nH]1 [FLUOROURACIL]", "system-under-test": "HepG2", "comparison-operator": "=", "pIC50": 4.99}
{"compound": "CCN(CC)C[C@@H](C)CC[C@H]1O[C@H]2C[C@H]3[C@@H]4CC[C@@H]5C[C@@H](OCc6ccc(F)cc6)CC[C@]5(C)[C@H]4CC[C@]3(C)[C@H]2[C@@H]1C", "system-under-test": "HepG2", "comparison-operator": "=", "pIC50": 4.58}
{"compound": "CO[C@H]1CC[C@@]2(C)[C@H](CC[C@@H]3[C@@H]2CC[C@]2(C)[C@H]4[C@H](C)[C@@H](CC[C@@H](C)CN5CCCC5)O[C@H]4C[C@@H]32)C1", "system-under-test": "HepG2", "comparison-operator": "=", "pIC50": 5.37}
{"compound": "CCN(CC)C[C@@H](C)CC[C@H]1O[C@H]2C[C@H]3[C@@H]4CC[C@@H]5C[C@@H](OCc6ccccc6)CC[C@]5(C)[C@H]4CC[C@]3(C)[C@H]2[C@@H]1C", "system-under-test": "HepG2", "comparison-operator": "=", "pIC50": 4.36}
